system: NCI-H23; assay: NCI tumour cell line growth inhibition, 48 h
Calls of active or inactive are those of the source. Rule as the data show it: active = GI50 up to about 1.1 µM and inactive = higher.
quantity_name: GI50

Ask: # GI50 lookup, item CN1CN(c2ccccc2)C2(CCN(C(=O)OC(C)(C)C)CC2)C1=O
Result: > 100 µM (inactive)

Ask: # GI50 lookup, item C[C@H](CO)C1=CC(C#C[Si](C)(C)C)N(C(=O)Oc2ccccc2)c2ccccc21 (stereo partly specified)
Result: 4.29 µM (inactive)

Ask: # GI50 lookup, item O=[N+]([O-])c1cccc(C(O)/C(=N/O)c2nc3ccc(Cl)cc3nc2O)c1 (stereo unspecified)
Result: > 100 µM (inactive)

Ask: # GI50 lookup, item CC(CN(C)C)C(C#N)(c1ccccc1)c1ccccc1 (stereo unspecified)
Result: > 100 µM (inactive)

Ask: # GI50 lookup, item COc1cc(NS(C)(=O)=O)ccc1N1Cc2c[nH]c3ccc4nccc1c4c23
Result: 39.1 µM (inactive)

Ask: # GI50 lookup, item Fc1cccc(F)c1C(Nc1nncs1)Nc1nncs1
Result: > 100 µM (inactive)

Data credit: ChEMBL document CHEMBL1201862
